system: Rhizoctonia solani (Rs); experiment: In vitro pathogen growth inhibition assay, Rs (mycelial plugs); format: cell-based; conditions: Rhizoctonia solani, 48 h, ≥90% growth inhibition; mycelial plugs; 48 hours; vs 2% DMSO control; read-out: Compound Concentration (ppm) sufficient for ≥90% inhibition of Rs
measure-name: IC90 (µg/mL)
Give the number; µg/mL is assumed, so skip it.

>  <smiles-string>
COc1ccc(F)cc1[C@@](C)(Cn1c(=O)n(C(C)(C)C(=O)NC(C)C)c(=O)c2c(C)c(-n3nccn3)sc21)OCCC#N

>  <measured-on>
Rhizoctonia solani (Rs)

>  <unit-of-measurement>
µg/mL

>  <readout-number>
0.08

$$$$

Please examine the following record next.
# input compound: `COc1ccc(Cl)cc1[C@H](Cn1c(=O)n(C(C)(C)C(=O)NC(C)C)c(=O)c2c(C)c(-n3nccn3)sc21)OCC(C)(C)C#N` ; wanted: its IC90
2

###

system: Rhizoctonia solani (Rs); experiment: In vitro pathogen growth inhibition assay, Rs (mycelial plugs); assay type: cell-based; conditions: Rhizoctonia solani, 48 h, ≥90% growth inhibition; mycelial plugs; 48 hours; vs 2% DMSO control; read-out: Compound Concentration (ppm) sufficient for ≥90% inhibition of Rs
measure-name: IC90 (µg/mL)
Give the number; µg/mL is assumed, so skip it.

>  <smiles-string>
Cc1c(-n2nccn2)sc2c1c(=O)n(C(C)(C)C(=O)NC(C)C)c(=O)n2C[C@H](O[C@H]1CC[C@@H](O)CC1)c1cc(F)ccc1OCC#N

>  <unit-of-measurement>
µg/mL

>  <IC90>
0.4

$$$$

# input molecule: `CCc1ccc(F)cc1[C@H](Cn1c(=O)n(C(C)(C)C(=O)NC(C)C)c(=O)c2c(C)c(-n3nccn3)sc21)OC[C@@H](C)C#N` ; wanted: its IC90
0.08

Lookup `COCCO[C@@H](Cn1c(=O)n(C(C)(C)C(=O)NC2CCC2)c(=O)c2c(C)c(-n3cccn3)sc21)c1cc(F)ccc1OC`
50

Lookup `COc1ccc(F)cc1[C@@H](O)Cn1c(=O)n(C(C)(C)C(=O)NC(C)C)c(=O)c2c(C)c(-n3nccn3)sc21`
0.08

Lookup `CCNC(=O)C(C)(C)n1c(=O)c2c(C)c(C(=O)OCC)sc2n(C[C@H](OCCC#N)c2ccccc2OC)c1=O`
2

Lookup `CCNC(=O)[C@@H](C)n1c(=O)c2c(C)c(-n3nccn3)sc2n(C[C@H](OCCC#N)c2cc(F)ccc2OC)c1=O`
0.08

Lookup `COc1ccc(F)cc1[C@H](Cn1c(=O)n([C@H](C)C(=O)N(C)C(C)C)c(=O)c2c(C)c(-n3nccn3)sc21)OCCC#N`
0.08

###

Each entry below lists one item and its recorded IC90 value.
system: Diplodia maydis (Dm); experiment: In vitro pathogen growth inhibition assay, Dm; assay type: cell-based; conditions: Stenocarpella maydis, 48 h, concentration sufficient to ≥90% inhibition of growth; 48 hours vs 2% DMSO control; read-out: Compound Concentration (ppm) for ≥90% inhibition, Dm

Before answering, review these 6 worked examples.
>  <smiles-string>
COc1ccc(F)cc1[C@](O)(CCO)Cn1c(=O)n(C(C)(C)C(=O)NC(C)C)c(=O)c2c(C)c(-n3nccn3)sc21

>  <measured-on>
Diplodia maydis (Dm)

>  <IC90>
> 50 µg/mL

$$$$
>  <smiles-string>
COCCO[C@@H](Cn1c(=O)n([C@@H](C)C(=O)NC(C)C)c(=O)c2c(C)c(-n3cccn3)sc21)c1cc(F)ccc1OC

>  <measured-on>
Diplodia maydis (Dm)

>  <IC90>
> 50 µg/mL

$$$$
>  <smiles-string>
COc1ccc(F)cc1[C@H](Cn1c(=O)n([C@@H](C)C(N)=O)c(=O)c2c(C)c(-n3nccn3)sc21)OCCC#N

>  <measured-on>
Diplodia maydis (Dm)

>  <IC90>
50 µg/mL

$$$$
>  <smiles-string>
COc1ccc(F)cc1[C@@H](Cn1c(=O)n(C(C)(C)C(=O)NC(C)C)c(=O)c2c(C)c(-n3nccn3)sc21)OCCCO

>  <measured-on>
Diplodia maydis (Dm)

>  <IC90>
> 50 µg/mL

$$$$
>  <smiles-string>
CCOC(=O)c1sc2c(c1C)c(=O)n([C@@H](C)C(N)=O)c(=O)n2C[C@H](OCCC#N)c1cc(F)ccc1OC

>  <measured-on>
Diplodia maydis (Dm)

>  <IC90>
> 50 µg/mL

$$$$
>  <smiles-string>
COc1ccc(F)cc1[C@H](Cn1c(=O)n([C@@H](C)C(N)=O)c(=O)c2c(C)c(-n3nccn3)sc21)OCC(C)(C)C#N

>  <measured-on>
Diplodia maydis (Dm)

>  <IC90>
50 µg/mL

$$$$

Query for Diplodia maydis (Dm): what IC90 does the record show for `CCNC(=O)C(C)(C)n1c(=O)c2c(C)c(-n3nccn3)sc2n(C[C@@H](OC(C)=O)c2cc(F)ccc2OC)c1=O` ?
> 50 µg/mL

Lookup `Cc1c(-n2cccn2)sc2c1c(=O)n(C(C)(C)C(=O)NC(C)C)c(=O)n2CCc1cc(F)ccc1OCCC#N`
> 50 µg/mL

Lookup `COc1ccc(F)cc1[C@H](Cn1c(=O)n([C@@H](C)C(=O)NC2CCC2)c(=O)c2c(C)c(-n3cccn3)sc21)OCCC#N`
> 50 µg/mL

These entries and their values trace back to patent US10941157B2.
